SYSTEM_TESTED: Eukaryotic translation initiation factor 4E (Oryctolagus cuniculus)
Sequence (P29338 whole entry): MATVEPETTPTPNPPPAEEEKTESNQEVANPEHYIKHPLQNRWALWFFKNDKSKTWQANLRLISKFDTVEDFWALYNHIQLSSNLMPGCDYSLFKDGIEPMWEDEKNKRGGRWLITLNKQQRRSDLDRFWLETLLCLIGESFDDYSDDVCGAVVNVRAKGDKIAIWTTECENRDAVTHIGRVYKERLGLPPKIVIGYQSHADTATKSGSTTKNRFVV
TEST_METHOD_NOTES: Inhibition of eIF4E-mediated mRNA translation in rabbit reticulocyte lysate assessed as translation efficiency after 60 mins by luciferase reporter gene assay relative to m7GpppG-capped mRNA
OBSERVED_PROPERTY: fold change (FC)

1 = CO[C@@H]1[C@H](O)[C@@H](COP(=O)(O)CP(=O)(O)OP(=O)([O-])OC[C@H]2O[C@@H](n3cnc4c(=O)[nH]c(N)nc43)[C@H](O)[C@@H]2O)O[C@H]1n1c[n+](C)c2c(O)nc(N)nc21
2 = CO[C@@H]1[C@H](O)[C@@H](COP(=O)([O-])NP(=O)(O)OP(=O)(O)OP(=O)(O)OC[C@H]2O[C@@H](n3cnc4c(=O)[nH]c(N)nc43)[C@H](O)[C@@H]2O)O[C@H]1n1c[n+](C)c2c(=O)[nH]c(N)nc21.N.N.N
[Q] Identify the item whose fold change (FC) is the smaller number: 1 or 2 API: response body contains the label of the selected item.
[A] 2
(2: 0.73, 1: 1.1)

====

SYSTEM_TESTED: Eukaryotic translation initiation factor 4E (Oryctolagus cuniculus)
TEST_METHOD_NOTES: Inhibition of eIF4E-mediated mRNA translation in rabbit reticulocyte lysate pre-incubated for 60 mins prior to mRNA addition by luciferase reporter gene assay
OBSERVED_PROPERTY: IC50 (µM)

C[n+]1cn([C@@H]2O[C@H](COP(=O)([O-])NP(=O)(O)OP(=O)(O)OC[C@H]3O[C@@H](n4cnc5c(=O)[nH]c(N)nc54)[C@H](O)[C@@H]3O)[C@@H](O)[C@H]2O)c2nc(N)[nH]c(=O)c21.N.N | 3.74

I = C[n+]1cn([C@@H]2O[C@H](COP(=O)([O-])OP(=O)(O)OP(=O)(O)NP(=O)(O)OC[C@H]3O[C@@H](n4cnc5c(=O)[nH]c(N)nc54)[C@H](O)[C@@H]3O)[C@@H](O)[C@H]2O)c2nc(N)[nH]c(=O)c21.N.N.N
II = C[n+]1cn([C@@H]2O[C@H](COP(=O)([O-])NP(=O)([O-])OP(=O)([O-])OP(=O)([O-])OC[C@H]3O[C@@H](n4cnc5c(=O)[nH]c(N)nc54)[C@H](O)[C@@H]3O)[C@@H](O)[C@H]2O)c2nc(N)[nH]c(=O)c21.[Na+].[Na+].[Na+]
[Q] Hi there, can you help? I need to know whether I or II has lower measured IC50. // output: label of the selected item
[A] II
(II: 3.58 µM, I: 16 µM)

====

SYSTEM_TESTED: m7GpppX diphosphatase (Homo sapiens)
OBSERVED_PROPERTY: Ka (µM⁻¹)

1 = CO[C@@H]1[C@H](O)[C@@H](COP(=O)([O-])NP(=O)([O-])OP(=O)([O-])OC[C@H]2O[C@@H](n3cnc4c(=O)[nH]c(N)nc43)[C@H](O)[C@@H]2O)O[C@H]1n1c[n+](C)c2c(=O)[nH]c(N)nc21.[Na+].[Na+]
2 = C[n+]1cn([C@@H]2O[C@H](COP(=O)([O-])NP(=O)([O-])OP(=O)([O-])OP(=O)([O-])OC[C@H]3O[C@@H](n4cnc5c(=O)[nH]c(N)nc54)[C@H](O)[C@@H]3O)[C@@H](O)[C@H]2O)c2nc(N)[nH]c(=O)c21.[Na+].[Na+].[Na+]
3 = CO[C@@H]1[C@H](O)[C@@H](COP(=O)([O-])OP(=O)([O-])NP(=O)([O-])OC[C@H]2O[C@@H](n3cnc4c(=O)[nH]c(N)nc43)[C@H](O)[C@@H]2O)O[C@H]1n1c[n+](C)c2c(=O)[nH]c(N)nc21.[Na+].[Na+]
[Q] Task for the reader: rank each entry by its Ka, from the minimum upward. Rank them, then answer with their labels in that order.
[A] 3, 1, 2

P = C[n+]1cn([C@@H]2O[C@H](COP(=O)(S)OP(=O)(O)OP(=O)([O-])OC[C@H]3O[C@@H](n4cnc5c(=O)[nH]c(N)nc54)[C@H](O)[C@@H]3O)[C@@H](O)[C@H]2O)c2nc(N)[nH]c(=O)c21 (stereo partly specified)
Q = C[n+]1cn([C@@H]2O[C@H](COP(=O)([O-])NP(=O)(O)OP(=O)(O)OC[C@H]3O[C@@H](n4cnc5c(=O)[nH]c(N)nc54)[C@H](O)[C@@H]3O)[C@@H](O)[C@H]2O)c2nc(N)[nH]c(=O)c21.N.N
[Q] I would appreciate it if you could say which entry, P or Q , has the lower Ka value. Please indicate the selected item by its label.
[A] P
